Data provenance: paper PMC9482650

- Measured on: MAGI2_2, Q86UL8
- Sequence (Q86UL8 410-522): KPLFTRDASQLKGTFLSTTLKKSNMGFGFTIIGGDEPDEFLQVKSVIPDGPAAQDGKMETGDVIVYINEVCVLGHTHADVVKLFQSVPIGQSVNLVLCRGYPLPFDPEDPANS
- Assay info: holdup assay
- Set-up: key: below the threshold = too weak to quantify, mostly under pKd 3.1 to 4
- Experimental conditions: plain residues with an end cap or a label only (N-terminal biotin on a linker: ado-ado)
Measured attribute: pKd

* VKRNSKETVV [MARCHF3, Q86UD3] | 5.26
* TGLWKHETTV [ADGRA3, Q8IWK6] | 5.22
